Assay: Circular dichroism spectroscopy (helicity, thermal stability)
Type: physicochemical
Details: 35 μM peptide, PBS pH 7
reportedEndpoint: %-Helicity (%)
Number in %, nothing else.

// query Any idea what %-Helicity was measured for AVSKVLHLEGEVNKIKSALLSTNKAVVSLSNGVSVLTSKVLDLKNYIDKQ (Ac-AVSKVLHLEGEVNKIKSALLSTNKAVVSLSNGVSVLTSKVLDLKNYIDKQ-NH2) [Peptide T1772, RSV DP107-like peptide, residues 153-202 of the RSV F-protein] ?
// result 83

// query Param item = Ac-SGVAVSKVLHLEGEVNKIKSALLSTNKAVVSLSNGVSVLTSKVLDLKNYIDKQL-NH2 (N-terminus and C-terminus assumed) [Peptide T1623] ; retrieve measured %-Helicity.
// result 88
